target: MyD88^TIR (Homo sapiens, UniProt Q99836); construct: MyD88 (residues 148–296); 6xHis; made in house; host or cells: E. coli BL21 (DE3); assay: T‐Surf phage library (P8 and P3) selection against MyD88^TIR, four rounds, NGS read counts; assay type: binding; details: P8_MyD88: rank by NGS read count before grouping
Sequence (Q99836 148-296): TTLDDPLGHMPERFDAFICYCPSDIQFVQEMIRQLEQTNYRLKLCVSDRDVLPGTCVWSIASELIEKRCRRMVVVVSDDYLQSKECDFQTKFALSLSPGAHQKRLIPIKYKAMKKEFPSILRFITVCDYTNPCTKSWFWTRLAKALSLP
assay.readout: Rank (before)

A selection of reference data follows.
LGYHWIDWEDFVGIEN 3280
DPQLLDWFYVRLVSLL 3022
YASYDDNYYYWVTHVLLRRL 1775
YELDFSHFCCLMARR 1947
YLLLSVLHTRSARGYV 2010
YASSSWYLDELVRSLW 1860
WVLHKVLQILHAREIY 1390
VQWADPWFWDKLAYEK 2215

a = DPQLLDWLYERLRRPV
b = YLLLSVFQTICALRTE
c = WAFASNMAQFWDRLYS
Please order the records by their reported Rank (before), lowest number first. Thanks in advance for listing the labels in the requested order.
c, b, a
(c: 1395, b: 1999, a: 3024)

I = DPQDLDWFYERLASGI
II = YASSSWELDELLRIPY
Smaller Rank (before) value, I vs II ? Label of pick, please.
II
(II: 1904, I: 2782)
